Tested on: Phakopsora pachyrhizi (the causal agent of Asian soybean rust)
PROTOCOL: Test A: preventive spray on soybean seedlings, Asian soybean rust, visual disease rating
Format: in vivo
EXPERIMENTAL_CONDITIONS: test suspension 10 ppm; soybean seedlings; 100 = 100% disease control, 0 = no control
READOUT_KIND: Test A disease control rating (%)
Hi! Could you send only the number? It should be in %, unit omitted.

COMPOUND: CCOC(=O)c1cnn(Cc2ccc(-c3noc(C(F)(F)F)n3)cc2F)c1 [compound 304]
Test A disease control rating, %: 100

COMPOUND: FC(F)(F)c1nc(-c2ccc(Cn3nc4ccccc4c3Br)cc2)no1 [compound 113]
Test A disease control rating, %: 99

COMPOUND: CCOC(=O)c1cnn(CCCn2nc(-c3noc(C(F)(F)F)n3)ccc2=O)c1 [compound 358]
Test A disease control rating, %: 0

COMPOUND: FC(F)(F)c1nc(-c2ccc(Cn3ccc4cnccc43)cc2)no1 [compound 137]
Test A disease control rating, %: 100

COMPOUND: CCOC(=O)c1cc(C(C)C)nn1Cc1ccc(-c2noc(C(F)(F)F)n2)cc1 [compound 82]
Test A disease control rating, %: 0

Using known records, supply Test A disease control rating for FC(F)(F)c1nc(-c2ccc(CN3CCc4ccccc4C3)cc2)no1 [compound 351]
92

Using known records, supply Test A disease control rating for COc1ccc2nn(Cc3ccc(-c4noc(C(F)(F)F)n4)cc3)cc2c1 [compound 131]
100

Using known records, supply Test A disease control rating for CCOC(=O)C1=NOC(Cc2ccc(-c3noc(C(F)(F)F)n3)cc2)C1 (stereo not shown) [compound 29]
73

----------
Tested on: Puccinia recondita f. sp. tritici (the causal agent of wheat leaf rust)
PROTOCOL: Test C: preventive spray on wheat seedlings, wheat leaf rust, visual disease rating
Format: in vivo
EXPERIMENTAL_CONDITIONS: test suspension 10 ppm; wheat seedlings
Excerpt: General protocol for preparing test suspensions for Tests A-D: the test compounds were first dissolved in acetone in an amount equal to 3% of the final volume and then suspended at the desired concentration (in ppm) in acetone and purified water (50/50 mix by volume) containing 250 ppm of the surfactant PEG400 (polyhydric alcohol esters). The resulting test suspensions were then used in Tests A-D. The test suspension was sprayed to the point of run-off on wheat seedlings. […]
READOUT_KIND: Test C disease control rating (%)
Hi! Could you send only the number? It should be in %, unit omitted.

The following compounds have reported results that may help.
COMPOUND: CONC(=O)c1cnn(Cc2ccc(-c3noc(C(F)(F)F)n3)cc2)c1
READOUT_KIND: Test C disease control rating
RESULT_NUMBER: 100

COMPOUND: FC(F)(F)c1nc(-c2ccc(Cn3cc4c(I)cc(Cl)cc4n3)cc2)no1
READOUT_KIND: Test C disease control rating
RESULT_NUMBER: 68

COMPOUND: O=C(NC1CCOC1=O)c1coc(Cc2ccc(-c3noc(C(F)(F)F)n3)cc2)n1 (stereo not shown)
READOUT_KIND: Test C disease control rating
RESULT_NUMBER: 99

Using known records, supply Test C disease control rating for CN(C)C(=O)c1nn(Cc2ccc(-c3noc(C(F)(F)F)n3)cc2)c2ccccc12
96

Using known records, supply Test C disease control rating for Cc1cc(C(=O)OCC#N)nn1Cc1ccc(-c2noc(C(F)(F)F)n2)cc1 [compound 185]
98

Using known records, supply Test C disease control rating for CCOC(=O)c1cnn(Cn2nc(-c3noc(C(F)(F)F)n3)ccc2=O)c1
0

Using known records, supply Test C disease control rating for O=C(OCC#Cc1ccccc1)c1cnn(Cc2ccc(-c3noc(C(F)(F)F)n3)cc2)c1
86

Using known records, supply Test C disease control rating for CCOC(=O)c1cnn(Cn2ccc(-c3noc(C(F)(F)F)n3)cc2=O)c1
88

Using known records, supply Test C disease control rating for COC(=O)C=CCOC(=O)c1cnn(Cc2ccc(-c3noc(C(F)(F)F)n3)cc2)c1
100

Using known records, supply Test C disease control rating for C#CCOC(=O)c1cnn(CCCc2ccc(-c3noc(C(F)(F)F)n3)cc2)c1
96

----------
The following molecules are shown together with reported Test C disease control rating values.
Tested on: Puccinia recondita f. sp. tritici (the causal agent of wheat leaf rust)
PROTOCOL: Test C: preventive spray on wheat seedlings, wheat leaf rust, visual disease rating
Type: in vivo
EXPERIMENTAL_CONDITIONS: test suspension 10 ppm; wheat seedlings
Hi! Could you send only the number? It should be in %, unit omitted.

Using known records, supply Test C disease control rating for N#CCNC(=O)c1nn(Cc2ccc(-c3noc(C(F)(F)F)n3)cc2)c2ccccc12
95

Using known records, supply Test C disease control rating for COCCOC(=O)c1cnn(Cc2ccc(-c3noc(C(F)(F)F)n3)cc2)c1
100

Using known records, supply Test C disease control rating for CC(C)OC(=O)c1cnn(Cc2cc(-c3noc(C(F)(F)F)n3)cs2)c1
74

Using known records, supply Test C disease control rating for N#Cc1cnn(CCCc2ccc(-c3noc(C(F)(F)F)n3)cc2)c1
95

Using known records, supply Test C disease control rating for COCCNC(=O)c1cccc(Cc2ccc(-c3noc(C(F)(F)F)n3)cc2)c1
100

----------
Test system: Phakopsora pachyrhizi (the causal agent of Asian soybean rust)
PROTOCOL: Test A: preventive spray on soybean seedlings, Asian soybean rust, visual disease rating
Type: in vivo
EXPERIMENTAL_CONDITIONS: test suspension 10 ppm; soybean seedlings; 100 = 100% disease control, 0 = no control
The following compounds are shown together with reported Test A disease control rating values.

The following compounds have reported results that may help.
COMPOUND: FC(F)(F)c1nc(-c2ccc(Cn3ccc4ccncc43)cc2)no1 [compound 135]
Test A disease control rating: 96%
--
COMPOUND: Cc1cc(C(F)(F)F)n(Cc2ccc(-c3noc(C(F)(F)F)n3)cc2)n1 [compound 127]
Test A disease control rating: 0%
--
COMPOUND: FC(F)(F)c1nc(-c2ccc(Cn3nc(Br)c4ccccc43)cc2)no1 [compound 112]
Test A disease control rating: 92%
--
COMPOUND: COC(=O)c1ccc(COc2ccc(-c3noc(C(F)(F)F)n3)cc2)cc1 [compound 354]
Test A disease control rating: 0%
--
COMPOUND: O=C(NCCn1cccn1)c1cnn(COc2ccc(-c3noc(C(F)(F)F)n3)cc2)c1 [compound 215]
Test A disease control rating: 99%
--
COMPOUND: CON(C)C(=O)c1nn(Cc2ccc(-c3noc(C(F)(F)F)n3)cc2)c2ccccc12 [compound 43]
Test A disease control rating: 100%
--
COMPOUND: C[Si](C)(C)C#CCOC(=O)c1cnn(Cc2ccc(-c3noc(C(F)(F)F)n3)cc2)c1 [compound 348]
Test A disease control rating: 100%
--
COMPOUND: CON=C(COC(=O)c1cnn(Cc2ccc(-c3noc(C(F)(F)F)n3)cc2)c1)c1ccccc1 [compound 245]
Test A disease control rating: 100%

Using known records, supply Test A disease control rating for CCOc1ccccc1OCCOC(=O)c1cnn(Cc2ccc(-c3noc(C(F)(F)F)n3)cc2)c1 [compound 268]
100%

Using known records, supply Test A disease control rating for COC(=O)C1(NC(=O)c2cnn(Cc3ccc(-c4noc(C(F)(F)F)n4)cc3)c2)CC1 [compound 172]
100%

Using known records, supply Test A disease control rating for COCCOC(=O)c1cnn(Cc2ccc(-c3noc(C(F)(F)F)n3)cc2)c1 [compound 59]
100%

----------
Tested on: Puccinia recondita f. sp. tritici (the causal agent of wheat leaf rust)
PROTOCOL: Test C: preventive spray on wheat seedlings, wheat leaf rust, visual disease rating
Format: in vivo
EXPERIMENTAL_CONDITIONS: test suspension 10 ppm; wheat seedlings
READOUT_KIND: Test C disease control rating (%)
Hi! Could you send only the number? It should be in %, unit omitted.

CHEMICAL_SMILES: COC(=O)c1ccc2cnn(Cc3ccc(-c4noc(C(F)(F)F)n4)cc3)c2c1
READOUT_KIND: Test C disease control rating
RESULT_NUMBER: 98
//
CHEMICAL_SMILES: CC(COC(=O)c1cnn(Cc2ccc(-c3noc(C(F)(F)F)n3)cc2)c1)=NOC(C)C
READOUT_KIND: Test C disease control rating
RESULT_NUMBER: 97
//
CHEMICAL_SMILES: O=C(NCC(F)(F)F)c1csc(Cc2ccc(-c3noc(C(F)(F)F)n3)cc2)c1
READOUT_KIND: Test C disease control rating
RESULT_NUMBER: 100
//
CHEMICAL_SMILES: CCOC(=O)c1cnn(Cc2cc(OC)c(-c3noc(C(F)(F)F)n3)s2)c1
READOUT_KIND: Test C disease control rating
RESULT_NUMBER: 0
//
CHEMICAL_SMILES: FC(F)(F)c1nc(-c2ccc(OCn3cncn3)cc2)no1
READOUT_KIND: Test C disease control rating
RESULT_NUMBER: 82
//
CHEMICAL_SMILES: CCCOC(=O)c1cnn(Cc2cc(-c3noc(C(F)(F)F)n3)cs2)c1
READOUT_KIND: Test C disease control rating
RESULT_NUMBER: 74
//
CHEMICAL_SMILES: COC(=O)c1c2ccccc2nn1Cc1ccc(-c2noc(C(F)(F)F)n2)cc1
READOUT_KIND: Test C disease control rating
RESULT_NUMBER: 88

Here's the next entry for you.
Using known records, supply Test C disease control rating for COCCNC(=O)c1coc(Cc2ccc(-c3noc(C(F)(F)F)n3)cc2)c1
85
